System: 485368-065-R3-J5-PDC spheroids with HUVEC/MSC, viability;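 note: spheroids exposed to agents for seven days before readout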
Assay: Anticancer human tumor 485368-065-R3-J5-PDC patient-derived pancreatic carcinoma cell line growth inhibition [RAS]
Conditions: second compound 0.0949 µM; first compound 10 µM; stronger effect = lower value
In this section, each of the compounds is paired with its reported viability, T/C.
Write the answer as a number in %, unit excluded.

The cases that follow already have their viability, T/C on record.
Compound	Endpoint Result
CC(C)NCC(C(=O)N1CCN(c2ncnc3c2C(C)CC3O)CC1)c1ccc(Cl)cc1 (centres undefined) + CCn1c(-c2cccnc2C(C)OC)c2c3cc(ccc31)N1CCOC(CC(NC(=O)C(C(C)C)N(C)C(=O)C3(F)CCN(C(=O)C#CC(C)(C)N(C)C)CC3)C(=O)N3CCCC(N3)C(=O)OCC(C)(C)C2)C1	56.2
CC(C)NCC(C(=O)N1CCN(c2ncnc3c2C(C)CC3O)CC1)c1ccc(Cl)cc1 (centres undefined) + CCn1c(-c2cc(N3CCN(C)CC3)cnc2C(C)OC)c2c3cc(ccc31)-c1csc(n1)CC(NC(=O)C1CC1C)C(=O)N1CCCC(N1)C(=O)OCC(C)(C)C2	6.12
NC1c2ccccc2OC12CCN(c1cnc3c(N4CCCc5ncccc54)n[nH]c3n1)CC2 (centres undefined) + CCn1c(-c2cccnc2C(C)OC)c2c3cc(ccc31)N1CCOC(CC(NC(=O)C(C(C)C)N(C)C(=O)C3(F)CCN(C(=O)C#CC(C)(C)N(C)C)CC3)C(=O)N3CCCC(N3)C(=O)OCC(C)(C)C2)C1	76.5

Shifting focus to the compound that follows.
## Task Suppose we examine the compound C[C@@H](NC(=O)c1ncnc(N)c1Cl)c1ncc(C(=O)Nc2cc(C(F)(F)F)c(Cl)cn2)s1 + CCn1c(-c2cc(N3CCN(C)CC3)cnc2C(C)OC)c2c3cc(ccc31)-c1csc(n1)CC(NC(=O)C1CC1C)C(=O)N1CCCC(N1)C(=O)OCC(C)(C)C2 ; what viability, T/C value has been reported?
## Result 10.8
